System: right auricle muscle
Procedure details: Heart rates (beats) of right auricle muscle excised from rats
Set-up: species or system rat
Recorded conditions: 1 × 10^−4 M; vehicle control:100%
Quantity name: Heart Rates of Auricle Muscles

Use these answered entries as a reference point.
{"Compound": "Oc1cc2c(cc1O)C(Cc1ccc3ccccc3c1)NCC2 (racemic) [Racemic mixture of formula 7 and formula 8, reference compound]", "Target or system": "right auricle muscle", "Data value": "140%"}
{"Compound": "Oc1ccc(C[C@@H]2NCCc3cc(O)c(O)cc32)cc1", "Target or system": "right auricle muscle", "Data value": "250%"}
{"Compound": "Oc1cc2c(cc1O)[C@H](Cc1cccc3ccccc13)NCC2", "Target or system": "right auricle muscle", "Data value": "190%"}
{"Compound": "Oc1cc2c(cc1O)[C@H](Cc1ccc3ccccc3c1)NCC2", "Target or system": "right auricle muscle", "Data value": "180%"}
{"Compound": "Oc1cc2c(cc1O)[C@@H](Cc1cccc3ccccc13)NCC2", "Target or system": "right auricle muscle", "Data value": "71%"}

Item Oc1cc2c(cc1O)[C@@H](Cc1ccc3ccccc3c1)NCC2 has what recorded Heart Rates of Auricle Muscles?
105%

Item Oc1ccc(CC2NCCc3cc(O)c(O)cc32)cc1 (racemic) [Racemic mixture of formula 3 and formula 4, higenamine, reference compound] has what recorded Heart Rates of Auricle Muscles?
200%

Item Oc1ccc(C[C@H]2NCCc3cc(O)c(O)cc32)cc1 has what recorded Heart Rates of Auricle Muscles?
140%

Item Oc1cc2c(cc1O)C(Cc1cccc3ccccc13)NCC2 (racemic) [Racemic mixture of formula 5 and formula 6, reference compound] has what recorded Heart Rates of Auricle Muscles?
135%

---

Tested on: LPS-injected rat
Procedure details: Survival in LPS-injected rat
Type: in vivo
Recorded conditions: 30 mg/kg compound 30 min before LPS 20 mg/kg i.p.
Quantity name: survival after six days (%)
Output spec: scalar in %, unitless text.

Use these answered entries as a reference point.
{"Smiles record": "Oc1ccc(C[C@H]2NCCc3cc(O)c(O)cc32)cc1", "Unit": "%", "Data value": 67}
{"Smiles record": "Oc1cc2c(cc1O)[C@@H](Cc1ccc3ccccc3c1)NCC2", "Unit": "%", "Data value": 72}

Item Oc1cc2c(cc1O)[C@H](Cc1cccc3ccccc13)NCC2 has what recorded survival after six days?
100

Item Oc1cc2c(cc1O)[C@@H](Cc1cccc3ccccc13)NCC2 has what recorded survival after six days?
93

---

Test system: rat PRP
Procedure details: Inhibition of platelet aggregation in rat PRP
Assay type: cell-based
Recorded conditions: Platelet; U46619 1.5 × 10^−6 M with threshold collagen; rat PRP; read-out: IC50 platelet aggregation, U46619
Rule: IC50 below 20 µM gives yes. Equal to or above 20 µM gives no.

Below, 4 compounds whose answers are already recorded.
{"Compound": "Oc1ccc(C[C@@H]2NCCc3cc(O)c(O)cc32)cc1 [Formula 3]", "Answer label": "no"}
{"Compound": "Oc1ccc(C[C@H]2NCCc3cc(O)c(O)cc32)cc1 [Formula 4]", "Answer label": "yes"}
{"Compound": "Oc1cc2c(cc1O)[C@H](Cc1ccc3ccccc3c1)NCC2 [Formula 7]", "Answer label": "no"}
{"Compound": "Oc1cc2c(cc1O)[C@H](Cc1cccc3ccccc13)NCC2 [Formula 5]", "Answer label": "yes"}

Dear reviewer, please state whether Oc1cc2c(cc1O)[C@@H](Cc1ccc3ccccc3c1)NCC2 [Formula 8] has IC50 strictly beneath 20 µM.
no

---

Test system: RAW 264.7 macrophage cells
Procedure details: Nitric oxide production in macrophage cell stimulated by LPS (Griess)
Assay type: cell-based
Recorded conditions: compound 100 μM; LPS 1 μg/ml
If the reported NO production by LPS in macrophage cell equals or exceeds 20 µM, assign 1.0. If not, assign 0.0.

Below, 4 molecules whose answers are already recorded.
{"Molecule": "Oc1ccc(CC2NCCc3cc(O)c(O)cc32)cc1 (racemic) [Racemic mixture of formula 3 and formula 4, higenamine, reference compound]", "Answer label": 0.0}
{"Molecule": "Oc1cc2c(cc1O)[C@H](Cc1ccc3ccccc3c1)NCC2", "Answer label": 0.0}
{"Molecule": "Oc1cc2c(cc1O)[C@@H](Cc1cccc3ccccc13)NCC2", "Answer label": 1.0}
{"Molecule": "Oc1cc2c(cc1O)[C@H](Cc1cccc3ccccc13)NCC2", "Answer label": 0.0}

Decide: is the reported value of NO production by LPS in macrophage cell for Oc1cc2c(cc1O)C(Cc1ccc3ccccc3c1)NCC2 (racemic) [Racemic mixture of formula 7 and formula 8, reference compound] equal to or greater than 20 µM?
1.0

---

A collection of compounds and their measured Contractile Force of Auricle Muscles
System: left auricle muscle
Procedure details: Contractile force of left auricle muscle excised from rats
Set-up: species or system rat
Recorded conditions: 1 × 10^−5 M; vehicle control:100%
Output spec: scalar in %, unitless text.

{"Compound": "Oc1cc2c(cc1O)[C@H](Cc1ccc3ccccc3c1)NCC2", "Contractile Force of Auricle Muscles [%]": 350}
{"Compound": "Oc1cc2c(cc1O)C(Cc1cccc3ccccc13)NCC2 (racemic) [Racemic mixture of formula 5 and formula 6, reference compound]", "Contractile Force of Auricle Muscles [%]": 400}
{"Compound": "Oc1cc2c(cc1O)[C@@H](Cc1ccc3ccccc3c1)NCC2", "Contractile Force of Auricle Muscles [%]": 100}

Item Oc1cc2c(cc1O)C(Cc1ccc3ccccc3c1)NCC2 (racemic) [Racemic mixture of formula 7 and formula 8, reference compound] has what recorded Contractile Force of Auricle Muscles?
250

Item Oc1ccc(C[C@H]2NCCc3cc(O)c(O)cc32)cc1 has what recorded Contractile Force of Auricle Muscles?
200

Item Oc1cc2c(cc1O)[C@@H](Cc1cccc3ccccc13)NCC2 has what recorded Contractile Force of Auricle Muscles?
50

Item Oc1ccc(CC2NCCc3cc(O)c(O)cc32)cc1 (racemic) [Racemic mixture of formula 3 and formula 4, higenamine, reference compound] has what recorded Contractile Force of Auricle Muscles?
260

Item Oc1cc2c(cc1O)[C@H](Cc1cccc3ccccc13)NCC2 has what recorded Contractile Force of Auricle Muscles?
630

Item Oc1ccc(C[C@@H]2NCCc3cc(O)c(O)cc32)cc1 has what recorded Contractile Force of Auricle Muscles?
300

---

System: rat PRP
Procedure details: Inhibition of platelet aggregation in rat PRP
Assay type: cell-based
Recorded conditions: Platelet; epinephrine 1 − 4 × 10^−6 M with threshold collagen; rat PRP; read-out: IC50 platelet aggregation, Epinephrine
Protocol: Male rat (weighing 200±20 g) was anaesthetized with ether. The blood (nine volumes) was collected from heart using a plastic syringe containing 2.2% sodium citrate (one volume). The collected blood was centrifuged at 200×g for 10 minutes to give supernatant platelet-rich plasma (PRP). […] The inhibitory effects of the compound represented by formulas 3 to 8 was evaluated by platelet aggregation analyzer, and the inhibitory effect of each compound is given as % below. […]
Quantity name: IC50 (µM)
Output spec: scalar in µM, unitless text.

Item Oc1ccc(C[C@H]2NCCc3cc(O)c(O)cc32)cc1 [Formula 4] has what recorded IC50?
14

Item Oc1cc2c(cc1O)[C@@H](Cc1cccc3ccccc13)NCC2 [Formula 6] has what recorded IC50?
2.4

Item Oc1cc2c(cc1O)[C@H](Cc1ccc3ccccc3c1)NCC2 [Formula 7] has what recorded IC50?
0.9

Item Oc1cc2c(cc1O)[C@@H](Cc1ccc3ccccc3c1)NCC2 [Formula 8] has what recorded IC50?
15

Item Oc1cc2c(cc1O)[C@H](Cc1cccc3ccccc13)NCC2 [Formula 5] has what recorded IC50?
0.38

Item Oc1ccc(C[C@@H]2NCCc3cc(O)c(O)cc32)cc1 [Formula 3] has what recorded IC50?
1.6

---

Tested on: rat PRP
Procedure details: Inhibition of platelet aggregation in rat PRP
Format: cell-based
Recorded conditions: Platelet; ADP 2 − 5 × 10^−6 M; rat PRP; read-out: IC50 platelet aggregation, ADP
Quantity name: pIC50
Please express pIC50 as -log10 of the molar concentration.

Use these answered entries as a reference point.
{"Molecule": "Oc1cc2c(cc1O)[C@@H](Cc1cccc3ccccc13)NCC2 [Formula 6]", "Quantity name": "pIC50", "Data value": 3.27}
{"Molecule": "Oc1cc2c(cc1O)[C@H](Cc1cccc3ccccc13)NCC2 [Formula 5]", "Quantity name": "pIC50", "Data value": 3.62}
{"Molecule": "Oc1cc2c(cc1O)[C@@H](Cc1ccc3ccccc3c1)NCC2 [Formula 8]", "Quantity name": "pIC50", "Data value": 3.27}

Please examine the following record next.
Item Oc1cc2c(cc1O)[C@H](Cc1ccc3ccccc3c1)NCC2 [Formula 7] has what recorded pIC50?
3.34

---

A collection of molecules and their measured NO production by LPS in macrophage cell
Tested on: RAW 264.7 macrophage cells
Procedure details: Nitric oxide production in macrophage cell stimulated by LPS (Griess)
Assay type: cell-based
Recorded conditions: compound 100 μM; LPS 1 μg/ml
Description: RAW 264.7 macrophage cells were plated on 100 mm culture dishes at a density of 1-2×10^5 cells. […] (In this progress, experimental group was divided into two groups, group to which the compound was administered, and group to which the compound was not.) Then, nitrite quantification was achieved by performing calorimetric reaction for produced nitrite with Griess reagent and then measuring absorbance at 550 nm, while using NaNO2 as a standard.
Be sure to follow the number with its unit.

{"Molecule": "Oc1ccc(C[C@H]2NCCc3cc(O)c(O)cc32)cc1", "NO production by LPS in macrophage cell": "8.2 µM"}
{"Molecule": "Oc1cc2c(cc1O)[C@@H](Cc1ccc3ccccc3c1)NCC2", "NO production by LPS in macrophage cell": "40 µM"}
{"Molecule": "Oc1ccc(C[C@@H]2NCCc3cc(O)c(O)cc32)cc1", "NO production by LPS in macrophage cell": "18.2 µM"}

Please examine the following record next.
Item Oc1cc2c(cc1O)C(Cc1cccc3ccccc13)NCC2 (racemic) [Racemic mixture of formula 5 and formula 6, reference compound] has what recorded NO production by LPS in macrophage cell?
26 µM

Origin of the recorded values: patent US20060058346A1
